assayedTarget: Serine/threonine-protein kinase pim-2 (Homo sapiens)
attributeMeasured: IC50 (µM)

Example entries begin here.
1) COC/C=C/c1c(Cl)c2c(Cl)cc(C(N)=O)nc2n1C1CCCNC1 (stereo unspecified) ... 0.057
2) NC(=O)c1cc(Cl)c2c(Cl)c(C#CC3CC3)n(C3CCCNC3)c2n1 (racemic) ... 0.006
3) NC(=O)c1cc(Cl)c2c(Cl)c(C(F)(F)F)n(C3CCCNC3)c2n1 (stereo unspecified) ... 0.025

(A) CSc1c(Cl)c2c(Cl)cc(C(N)=O)nc2n1C1CCCNC1 (stereo unspecified)
(B) CN1CCC(n2c(I)c(Cl)c3c(Cl)cc(C(N)=O)nc32)CC1
Query string: Look at A and B . Which one has the lower recorded IC50 number? Give the label under which the chosen entry appears.
Result string: A

(A) NC(=O)c1cc(Cl)c2c(Cl)c(C3CC3)n(C3CCCNC3)c2n1 (racemic)
(B) NC(=O)c1cc(Cl)c2c(Cl)c(I)n(C3CCNC(=O)C3)c2n1 (racemic)
(C) NC(=O)c1cc(Cl)c2c(Cl)c(C3CCCO3)n(C3CCCNC3)c2n1 (stereo unspecified)
Query string: # ascending order, key=IC50 Rank the items, then write their labels in that order.
Result string: A, C, B

====

assayedTarget: Serine/threonine-protein kinase pim-1 (Homo sapiens, UniProt P11309)
protocolDescription: Inhibition of PIM1 (unknown origin) assessed as reduction in BAD phosphorylation at Ser112 residues by TR-FRET assay
attributeMeasured: IC50 (nM)

Example entries begin here.
1) COCC1CC1c1c(Cl)c2c(Cl)cc(C(N)=O)nc2n1C1CCCNC1 (stereo not given) ... 42
2) CCN(CC)CCn1c(I)c(Cl)c2c(Cl)cc(C(N)=O)nc21 ... 125

(I) Cc1c(-c2ccc(N3CCN(C)CC3)cc2)n(C)c2nc(C(N)=O)cc(Cl)c12
(II) NC(=O)c1cc(Cl)c2c(Cl)c(I)n(C3CCNCC3)c2n1
(III) NC(=O)c1cc(Cl)c2c(Cl)c(I)n(C3CNC3)c2n1
Query string: # ascending order, key=IC50 Rank the items, then write their labels in that order.
Result string: II, I, III

====

pIC50: −log10 of the molar value.
Record set of pIC50 for target or system Serine/threonine-protein kinase pim-2 (Homo sapiens).
attributeMeasured: pIC50

1) Cn1cc(-c2c(Cl)c3c(Cl)cc(C(N)=O)nc3n2C2CCCNC2)cn1 (stereo not drawn) ... 7.80
2) NC(=O)c1cc(Cl)c2c(Cl)c(I)n(C3CCCNCC3)c2n1 (racemic) ... 7.82
